# SYSTEM TESTED: human platelet PDE5 (Homo sapiens)
# Construct: utilizes PDE5 isolated from human platelets; from tissue; host or cells: human platelets
# METHOD DESCRIPTION: Method A: PDE-5 Inhibition Scintillation Proximity Assay (SPA) - Human Platelet
# Type: biochemical
# APPLIED CONDITIONS: cGMP substrate 500 nM, PDE5 isolated from human platelets
# IC50 per record follows
Give a bare numeral; the unit nM is implied.

The following compounds have reported results that may help.
>>> measured("CCOCCn1nc(CN(C)C)c2nc(N(C)C)nc(Nc3cc(C)ccn3)c21")
6.9
>>> measured("CCOCCn1nc(CNC)c2nc(N(C)C)nc(Nc3cc(C)ccn3)c21")
4.5

Input CCNc1nc(Nc2cc(C)ccn2)c2c(n1)c(CNC(=O)CC)nn2CCOCC , output reported IC50. 0.53

Respond only with IC50 recorded for CCOCCn1nc(CNC(=O)CC)c2nc(NC)nc(Nc3cc(C)ccn3)c21 2.5
